experiment: Comparative pharmacokinetic study of sublingual thin film and oral formulation in rabbits
Assay type: in vivo
testParameters: rabbit, blood, other: sublingual; sublingual route, oral thin film, 10 mg, male New Zealand White Rabbits
metric: AUC(0-inf) (ng·h/mL)
I only need the number, in ng·h/mL, no unit after it.

Query string: What value of AUC(0-inf) has been reported for the following compound? CCCCCCCC(=O)N[C@H](CN1CCCC1)[C@H](O)c1ccc2c(c1)OCCO2.O=C(O)C(O)C(O)C(=O)O [Eliglustat tartrate]
Result string: 232

---

experiment: Comparative pharmacokinetic study of sublingual thin film and oral formulation in rabbits
Format: in vivo
testParameters: rabbit, blood, other: sublingual; sublingual route, oral thin film, 10 mg, male New Zealand White Rabbits
metric: MRT last (h)
I only need the number, in h, no unit after it.

Query string: What value of MRT last has been reported for the following compound? CCCCCCCC(=O)N[C@H](CN1CCCC1)[C@H](O)c1ccc2c(c1)OCCO2.O=C(O)C(O)C(O)C(=O)O [Eliglustat tartrate]
Result string: 2.72

---

experiment: Comparative pharmacokinetic study of sublingual thin film and oral formulation in rabbits
Type: in vivo
testParameters: rabbit, blood; oral dosing by gavage as a solution, male New Zealand White Rabbits
metric: MRT last (h)
I only need the number, in h, no unit after it.

Query string: What value of MRT last has been reported for the following molecule? CCCCCCCC(=O)N[C@H](CN1CCCC1)[C@H](O)c1ccc2c(c1)OCCO2.O=C(O)C(O)C(O)C(=O)O [Eliglustat tartrate]
Result string: 1.53

---

experiment: Comparative pharmacokinetic study of sublingual thin film and oral formulation in rabbits
Type: in vivo
testParameters: rabbit, blood, other: sublingual; sublingual route, oral thin film, 10 mg, male New Zealand White Rabbits
metric: Cmax (ng/mL)
I only need the number, in ng/mL, no unit after it.

Query string: What value of Cmax has been reported for the following compound? CCCCCCCC(=O)N[C@H](CN1CCCC1)[C@H](O)c1ccc2c(c1)OCCO2.O=C(O)C(O)C(O)C(=O)O [Eliglustat tartrate]
Result string: 79.4

---

experiment: Comparative pharmacokinetic study of sublingual thin film and oral formulation in rabbits
Type: in vivo
testParameters: rabbit, blood; oral dosing by gavage as a solution, male New Zealand White Rabbits
Source text: Animals. […] No non-disintegrated film fragments were observed.
metric: half-life (h)
I only need the number, in h, no unit after it.

Query string: What value of half-life has been reported for the following compound? CCCCCCCC(=O)N[C@H](CN1CCCC1)[C@H](O)c1ccc2c(c1)OCCO2.O=C(O)C(O)C(O)C(=O)O [Eliglustat tartrate]
Result string: 2.35

---

experiment: Comparative pharmacokinetic study of sublingual thin film and oral formulation in rabbits
Assay type: in vivo
testParameters: rabbit, blood; oral dosing by gavage as a solution, male New Zealand White Rabbits
metric: Cmax (ng/mL)
I only need the number, in ng/mL, no unit after it.

Query string: What value of Cmax has been reported for the following molecule? CCCCCCCC(=O)N[C@H](CN1CCCC1)[C@H](O)c1ccc2c(c1)OCCO2.O=C(O)C(O)C(O)C(=O)O [Eliglustat tartrate]
Result string: 3.31

---

experiment: Comparative pharmacokinetic study of sublingual thin film and oral formulation in rabbits
Format: in vivo
testParameters: rabbit, blood; oral dosing by gavage as a solution, male New Zealand White Rabbits
metric: AUC(0-t)
Returns: string containing the number followed by the unit.

Query string: What value of AUC(0-t) has been reported for the following compound? CCCCCCCC(=O)N[C@H](CN1CCCC1)[C@H](O)c1ccc2c(c1)OCCO2.O=C(O)C(O)C(O)C(=O)O [Eliglustat tartrate]
Result string: 6.31 ng·h/mL
